test system: L1210; experiment: Compound was evaluated for growth inhibition and minimal inhibitory concentration was reported against L1210 cells.; type: functional, Mus musculus; settings: Mus musculus
Measurement Label: MIC50 (nM)
Report the value in nM with no unit label.

Compound	Study Target	Result Units	Recorded Number
CC[C@@H](Cc1cnc2nc(N)nc(N)c2n1)c1ccc(C(=O)N[C@@H](CCC(=O)O)C(=O)O)cc1	L1210	nM	1.52
CN(Cc1cnc2nc(N)nc(N)c2n1)c1ccc(C(=O)N[C@@H](CCC(=O)O)C(=O)O)cc1 [METHOTREXATE]	L1210	nM	2.48
C[C@H](Cc1cnc2nc(N)nc(N)c2n1)c1ccc(C(=O)N[C@@H](CCC(=O)O)C(=O)O)cc1 (stereo in doubt; d-L-15a)	L1210	nM	0.68

Now, please, on to the next compound.
Ask | Dear colleague, I am looking for the recorded MIC50 of the following compound: CC[C@H](Cc1cnc2nc(N)nc(N)c2n1)c1ccc(C(=O)N[C@@H](CCC(=O)O)C(=O)O)cc1
Reply | 0.43
